assay: Selectivity index, ratio of GI50 for human HeLa cells to MIC for dormant stage of Mycobacterium tuberculosis H37Ra ATCC 25177 infected in human THP1 cells; type: toxicity, cell-based; conditions: read-out: Selectivity Index
Experimental Readout: selectivity ratio

Fill in: selectivity ratio of CCCCCCc1cc2c(=O)n(CCCSc3nc(-c4cc(OC)c(OC)c(OC)c4)c(C#N)c(=O)[nH]3)cnc2s1 is ___
9

What do you have for COc1cc(-c2nc(SCCCn3cnc4sc5c(c4c3=O)CCCC5)n(Cc3c(F)c(F)c(F)c(F)c3F)c(=O)c2C#N)cc(OC)c1OC ?
> 4

What do you have for N#Cc1c(-c2ccc(O)cc2)[nH]c(=S)[nH]c1=O ?
< 3

What do you have for CCCCCCCCn1c(SCCCn2cnc3sc4c(c3c2=O)CCCC4)nc(-c2cc(OC)c(OC)c(OC)c2)c(C#N)c1=O ?
> 3

What do you have for COc1cc(-c2[nH]c(=S)[nH]c(=O)c2C#N)cc(OC)c1OC ?
6

Others:
Fill in: selectivity ratio of COc1cc(-c2nc(SCCCn3cnc4sc5c(c4c3=O)CCCC5)n(CCC(F)(F)C(F)(F)C(F)(F)C(F)(F)C(F)(F)C(F)(F)F)c(=O)c2C#N)cc(OC)c1OC is ___
> 11

What do you have for COc1cc(-c2nc(SCCCn3cnc4sc5c(c4c3=O)CCCC5)[nH]c(=O)c2C#N)cc(OC)c1OC ?
2

Data credit: ChEMBL document CHEMBL3992538
